- assay_remarks: Half life in mouse plasma at 10 mg/kg, po by HPLC/MS analysis
- Format: ADME, organism-based
- condition_summary: plasma
measured_quantity: half-life
Answer shape: numeric part, then the unit.

Lookup: Recorded half-life of Nc1ccc2c(c1)CC(n1nc(-c3cc(F)c4c(c3)NCCO4)c3c(N)ncnc31)C2 (stereo in doubt; (+)-32) , please.
Found: 1.2 h

----------
Measured IC50 on Tyrosine-protein kinase BTK (Homo sapiens) follows.
Sequence (Q06187 whole entry): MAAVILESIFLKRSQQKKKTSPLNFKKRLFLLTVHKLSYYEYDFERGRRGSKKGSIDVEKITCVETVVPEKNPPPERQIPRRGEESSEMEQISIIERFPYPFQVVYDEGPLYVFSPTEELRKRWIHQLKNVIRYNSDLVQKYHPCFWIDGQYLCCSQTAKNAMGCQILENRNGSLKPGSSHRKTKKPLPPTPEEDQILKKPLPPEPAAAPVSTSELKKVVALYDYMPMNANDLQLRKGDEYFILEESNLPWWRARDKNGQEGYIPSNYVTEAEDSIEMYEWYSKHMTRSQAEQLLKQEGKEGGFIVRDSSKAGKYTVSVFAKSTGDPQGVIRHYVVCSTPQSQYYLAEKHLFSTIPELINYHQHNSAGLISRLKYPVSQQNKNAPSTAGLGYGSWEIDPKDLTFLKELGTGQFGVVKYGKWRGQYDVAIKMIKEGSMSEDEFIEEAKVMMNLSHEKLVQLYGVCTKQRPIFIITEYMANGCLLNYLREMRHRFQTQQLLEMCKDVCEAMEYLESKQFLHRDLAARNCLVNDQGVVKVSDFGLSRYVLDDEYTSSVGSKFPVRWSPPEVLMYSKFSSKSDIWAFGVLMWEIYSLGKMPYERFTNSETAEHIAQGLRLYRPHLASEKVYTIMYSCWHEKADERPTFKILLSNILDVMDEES
Numbers only, in nM.

Cc1ccc(-c2nn(C3Cc4ccccc4C3)c3ncnc(N)c23)cc1O ... 43

Lookup: Sample Nc1ccc2c(c1)CC(n1nc(-c3cc(F)c4c(c3)NCCO4)c3c(N)ncnc31)CC2 (single isomer, unassigned; (-)) — what was its IC50?
Found: 19

# credit: ChEMBL document CHEMBL3864190
